Parameter: inhibition at 5000 µM. Scope: all listed entries.
- System name: rBSH (recombinant bile salt hydrolase) (Ligilactobacillus salivarius)
- Construct: His-tagged full-length BSH, E. coli host, Ni-NTA purified
- Sequence (J7H3P9 2-324): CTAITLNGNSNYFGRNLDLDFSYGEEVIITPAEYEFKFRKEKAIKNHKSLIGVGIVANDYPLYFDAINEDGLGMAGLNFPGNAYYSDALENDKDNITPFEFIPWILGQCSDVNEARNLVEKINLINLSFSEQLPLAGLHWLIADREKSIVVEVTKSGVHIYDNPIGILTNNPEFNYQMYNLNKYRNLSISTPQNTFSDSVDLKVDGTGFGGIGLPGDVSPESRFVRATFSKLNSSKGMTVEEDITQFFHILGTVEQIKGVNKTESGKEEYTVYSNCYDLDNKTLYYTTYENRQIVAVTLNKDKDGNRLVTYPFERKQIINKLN
- Run description: two-step BSH assay, amino acid released from glycocholate
- Format: biochemical
Where a name gives a salt, the structure may show the parent alone.
Reply with the number, then its unit.

Worked set:
CC(C)c1cc2c(c(O)c1O)[C@@]1(C(=O)O)CCCC(C)(C)[C@@H]1CC2
96.8%
C=C1c2cccc(O)c2C(=O)C2=C(O)[C@]3(O)C(=O)C(C(N)=O)=C(O)[C@@H](N(C)C)[C@@H]3[C@@H](O)[C@H]12 [Methacycline Hydrochloride]
90.2%
O=C(/C=C/c1ccc(O)c(O)c1)OCCc1ccccc1
99.7%

Supply measured inhibition at 5000 µM of CCC[C@@H]1C[C@@H](C(=O)N[C@@H]([C@H]2O[C@H](SC)[C@H](O)[C@@H](O)[C@H]2O)[C@@H](C)O)N(C)C1 in your reply.
67.3%

Supply measured inhibition at 5000 µM of Cc1cc(C)nc(NS(=O)(=O)c2ccc(N)cc2)n1 in your reply.
48.7%

Supply measured inhibition at 5000 µM of CN(C)[C@@H]1C(O)=C(C(N)=O)C(=O)[C@@]2(O)C(O)=C3C(=O)c4c(O)ccc(Cl)c4[C@@H](O)[C@H]3C[C@@H]12 [Demeclocycline Hydrochloride] in your reply.
92%

Supply measured inhibition at 5000 µM of CC[C@H]1OC(=O)[C@H](C)[C@@H](O[C@H]2C[C@@](C)(OC)[C@@H](O)[C@H](C)O2)[C@H](C)[C@@H](O[C@@H]2O[C@H](C)C[C@H](N(C)C)[C@H]2O)[C@](C)(O)C[C@@H](C)C(=O)[C@H](C)[C@@H](O)[C@]1(C)O in your reply.
36.5%

Supply measured inhibition at 5000 µM of CC1=C(C(=O)O)N2C(=O)[C@@H](NC(=O)[C@H](N)C3=CCC=CC3)[C@H]2SC1 in your reply.
61.8%

Supply measured inhibition at 5000 µM of O=c1c(O)cccc2cc(O)c(O)c(O)c12 in your reply.
83%

Supply measured inhibition at 5000 µM of Cc1onc(-c2ccccc2Cl)c1C(=O)N[C@@H]1C(=O)N2[C@@H]1SC(C)(C)[C@@H]2C(=O)O in your reply.
61.2%

Supply measured inhibition at 5000 µM of CC[C@H]1OC(=O)C[C@@H](O)[C@H](C)[C@@H](O[C@@H]2O[C@H](C)[C@@H](O[C@H]3C[C@@](C)(O)[C@@H](O)[C@H](C)O3)[C@H](N(C)C)[C@H]2O)[C@@H](CC=O)C[C@@H](C)C(=O)/C=C/C(C)=C/[C@@H]1CO[C@@H]1O[C@H](C)[C@@H](O)[C@@H](OC)[C@H]1OC in your reply.
23.8%

Supply measured inhibition at 5000 µM of CN(C)[C@@H]1C(=O)C(C(N)=O)=C(O)[C@@]2(O)C(=O)C3=C(O)c4c(O)cccc4[C@@](C)(O)[C@H]3[C@H](O)[C@@H]12 in your reply.
97.4%
